- targetOrTestSystem: T1, recombinant human Tau monomer, 2N4R isoform (amino acids 2-441) (human, UniProt P10636-8 2-441)
- T1 construct: range 2-441; N-terminal His-tag removed with TEV protease; also called monomeric Tau
- T1 sequence (P10636 other isoform, or with tags, fused parts or gaps limits assumed): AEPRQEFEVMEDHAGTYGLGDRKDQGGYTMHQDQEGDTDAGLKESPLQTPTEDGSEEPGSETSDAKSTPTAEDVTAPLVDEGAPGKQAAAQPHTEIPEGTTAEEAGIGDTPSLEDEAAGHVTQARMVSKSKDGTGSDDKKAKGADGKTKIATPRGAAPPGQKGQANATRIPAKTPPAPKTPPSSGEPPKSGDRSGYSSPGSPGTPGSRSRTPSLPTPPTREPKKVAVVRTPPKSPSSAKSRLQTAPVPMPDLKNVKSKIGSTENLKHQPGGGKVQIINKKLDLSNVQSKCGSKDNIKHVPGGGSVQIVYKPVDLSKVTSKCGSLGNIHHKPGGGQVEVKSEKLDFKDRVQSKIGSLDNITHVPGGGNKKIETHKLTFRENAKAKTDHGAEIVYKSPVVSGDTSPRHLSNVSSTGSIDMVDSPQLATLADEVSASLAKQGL
- protocolDetails: SPR high-resolution kinetics, hIgG1
Recorded kon values for a group of binders are listed next.
Reply numerically in M⁻¹ s⁻¹, unit not repeated.

Some binders with recorded kon:
{"binder": "hu125B11.v17 (HC3+LC1) (antibody, IgG1, V domains shown, also called hu125B11 HC3 + 125B11 LC1) VH: EVQLVESGGGLVQPGGSLRLSCAASRFIFSNYWMNWVRQAPGKGLEWVAQIRLKSDNYATHYAESVKGRFTISRDDSKNTLYLQMNSLRAEDTAVYYCTGGTTYWGQGTLVTVSS VL: DIQMTQSPSSLSASVGDRVTITCKASQNVGTAVAWYQQKPGKSPKLLIYSASIRYTGVPSRFSGSGSGTDFTLTISSLQPEDFATYFCQQFRTYPYTFGQGTKVEIK", "kon (M⁻¹ s⁻¹)": 80000}
{"binder": "hu125B11.v26 (HC4+LC2) (antibody, IgG1, V domains shown, also called hu125B11 HC4 + 125B11 LC2) VH: EVQLVESGGGLVQPGGSLRLSCAASRFIFSNYWMNWVRQAPGKGLEWVAQIRLKSDNYATHYAESVKGRFTISRDNSKNTLYLQMNSLRAEDTAVYYCTGGTTYWGQGTLVTVSS VL: DIQMTQSPSSLSASVGDRVTITCKASQNVGTAVAWYQQKPGKAPKLLIYSASIRYTGVPSRFSGSGSGTDFTLTISSLQPEDFATYFCQQFRTYPYTFGQGTKVEIK", "kon (M⁻¹ s⁻¹)": 70000}
{"binder": "hu94B2.v105 (94B2.HC1 + 94B2.LC13) (antibody, IgG1, V domains shown, also called hu94B2 HC1 + LC13) VH: EVQLVQSGAEVKKPGASVKVSCKASGYSLTGYTMNWVRQAPGQGLEWIGLISPYNGVTSYNQKFKGRATLTVDKSTSTAYLELSSLRSEDTAVYYCARQGAYWGQGTLVTVSS VL: DIVMTQTPLSLPVTPGQPASISCKSSQSLLDSDGKTYLNWLLQKPGQSPQRLIYLVSKLDSGVPDRFSGSGSGTDFTLKISRVEAEDVGVYYCWQGTHFPWTFGQGTKVEIK", "kon (M⁻¹ s⁻¹)": 80000}

Proceeding to the next binder to report its kon.
State, in one line, measured kon of hu125B11.v28 (HC4+LC4) (antibody, IgG1, V domains shown, also called hu125B11 HC4 + 125B11 LC4) VH: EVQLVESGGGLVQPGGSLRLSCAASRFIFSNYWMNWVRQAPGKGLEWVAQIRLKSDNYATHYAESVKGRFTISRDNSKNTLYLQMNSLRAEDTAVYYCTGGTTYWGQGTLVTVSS VL: DIQMTQSPSSLSASVGDRVTITCKASQNVGTAVAWYQQKPGKAPKLLIYSASIRYTGVPSRFSGSGSGTDFTLTISSLQPEDFATYYCQQFRTYPYTFGQGTKVEIK
70000
